Parameter: melting point. Scope: all listed entries.
Counter-ions that a name gives are not always drawn.

>  <MOLECULE>
CCN1CCC(c2cccc(OS(=O)(=O)C(F)(F)F)c2F)CC1 (as salt: methanesulfonate)

>  <melting point>
158 to 159 °C

$$$$
>  <MOLECULE>
C=CCN1CCC(c2cccc(S(C)(=O)=O)c2F)CC1 (as salt: hydrochloric acid salt)

>  <melting point>
259 to 261 °C

$$$$
>  <MOLECULE>
COCCN1CCN(c2cccc(C(F)(F)F)c2F)CC1 (as salt: hydrochloric acid salt)

>  <melting point>
170 to 171 °C

$$$$
>  <MOLECULE>
CCN1CCC(c2cccc(S(=O)(=O)C(F)(F)F)c2F)CC1 (as salt: hydrochloric acid salt)

>  <melting point>
189 to 191 °C

$$$$
>  <MOLECULE>
CCCN1CCC(c2cccc(S(C)(=O)=O)c2N)CC1 (as salt: hydrochloric acid salt)

>  <melting point>
232 to 233 °C

$$$$
>  <MOLECULE>
CCN1CCC(c2cccc(S(C)(=O)=O)c2F)CC1 (as salt: maleic acid salt)

>  <melting point>
112 to 113 °C

$$$$
>  <MOLECULE>
CCN1CCN(c2cccc(S(C)(=O)=O)c2F)CC1 (as salt: hydrochloric acid salt)

>  <melting point>
214 to 216 °C

$$$$
>  <MOLECULE>
CCCN1CCC(c2cccc(C(F)(F)F)c2C#N)CC1 (as salt: hydrochloric acid salt)

>  <melting point>
272 to 274 °C

$$$$
>  <MOLECULE>
CCCN1CCN(c2cccc(C(F)(F)F)c2F)CC1 (as salt: hydrochloric acid salt)

>  <melting point>
180 to 181 °C

$$$$
>  <MOLECULE>
CCN1CCC(c2cccc(C(=O)C(F)(F)F)c2F)CC1 (as salt: fumaric acid salt)

>  <melting point>
109 to 110 °C

$$$$
>  <MOLECULE>
CCCN1CCN(c2cccc(Cl)c2Cl)CC1 (as salt: hydrochloric acid salt)

>  <melting point>
220 to 221 °C

$$$$
>  <MOLECULE>
CCCN1CCC(c2cccc(S(C)(=O)=O)c2F)CC1 (as salt: hydrochloric acid salt)

>  <melting point>
255 to 257 °C

$$$$
>  <MOLECULE>
CCCN1CCN(c2cccc(C#N)c2C(F)(F)F)CC1 (as salt: hydrochloric acid salt)

>  <melting point>
234 to 236 °C

$$$$
>  <MOLECULE>
CCCN1CCC(c2cccc(C(F)(F)F)c2F)CC1 (as salt: hydrochloric acid salt)

>  <melting point>
258 to 260 °C

$$$$
>  <MOLECULE>
CCCN1CCC(c2cccc(S(C)(=O)=O)c2C)CC1 (as salt: hydrochloric acid salt)

>  <melting point>
233 to 235 °C

$$$$
